System: LG0703-F948-PDC complex spheroid viability;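 further: spheroids exposed to agents for 7 days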
Experimental Protocol: Anticancer human tumor LG0703-F948-PDC patient-derived lung adenocarcinoma cell line growth inhibition [RAS]; active means viability on the fitted dose curve at most 10% of control; inactive means the rest
Test Context: second compound 0.03 µM; first compound 0.316 µM
Write down the outcome that applies. Available outcomes: active, inactive

# lookup: test call for CC1(O)CCCC1n1c(=O)c(C(F)F)cc2cnc(NC3CCN(S(C)(=O)=O)CC3)nc21 (stereo not drawn) + CCn1c(-c2cc(N3CCN(C)CC3)cnc2C(C)OC)c2c3cc(ccc31)-c1csc(n1)CC(NC(=O)C1CC1C)C(=O)N1CCCC(N1)C(=O)OCC(C)(C)C2
inactive

Per the records of this test, what outcome belongs to Cc1nc(N2CCC3(CC2)COC(C)C3N)c(CO)nc1Sc1ccnc(N)c1Cl (stereo not drawn) + CCn1c(-c2cccnc2C(C)OC)c2c3cc(ccc31)N1CCOC(CC(NC(=O)C(C(C)C)N(C)C(=O)C3(F)CCN(C(=O)C#CC(C)(C)N(C)C)CC3)C(=O)N3CCCC(N3)C(=O)OCC(C)(C)C2)C1 ?
inactive

Write down the call the test reported for this compound. Item: CCC(CC)c1cc(NC2CCC(N)C2)n2nccc2n1 (stereo not drawn) + CCn1c(-c2cc(N3CCN(C)CC3)cnc2C(C)OC)c2c3cc(ccc31)-c1csc(n1)CC(NC(=O)C1CC1C)C(=O)N1CCCC(N1)C(=O)OCC(C)(C)C2
active

In this assay, the call recorded for CCN1CCN(Cc2ccc(Nc3ncc(F)c(-c4cc(F)c5nc(C)n(C(C)C)c5c4)n3)nc2)CC1 + CCn1c(-c2cccnc2C(C)OC)c2c3cc(ccc31)N1CCOC(CC(NC(=O)C(C(C)C)N(C)C(=O)C3(F)CCN(C(=O)C#CC(C)(C)N(C)C)CC3)C(=O)N3CCCC(N3)C(=O)OCC(C)(C)C2)C1 was what?
inactive

So what was the verdict on O=C(c1ccc(F)c(F)c1Nc1ccc(I)cc1F)N1CC(O)([C@@H]2CCCCN2)C1 + CCn1c(-c2cc(N3CCN(C)CC3)cnc2C(C)OC)c2c3cc(ccc31)-c1csc(n1)CC(NC(=O)C1CC1C)C(=O)N1CCCC(N1)C(=O)OCC(C)(C)C2 in this test?
active

Would you mind telling me which call this test gave NC1c2ccccc2OC12CCN(c1cnc3c(N4CCCc5ncccc54)n[nH]c3n1)CC2 (stereo not drawn) + CCn1c(-c2cc(N3CCN(C)CC3)cnc2C(C)OC)c2c3cc(ccc31)-c1csc(n1)CC(NC(=O)C1CC1C)C(=O)N1CCCC(N1)C(=O)OCC(C)(C)C2 ?
active

Would you mind telling me which call this test gave NC1c2ccccc2OC12CCN(c1cnc3c(N4CCCc5ncccc54)n[nH]c3n1)CC2 (stereo not drawn) + CCn1c(-c2cccnc2C(C)OC)c2c3cc(ccc31)N1CCOC(CC(NC(=O)C(C(C)C)N(C)C(=O)C3(F)CCN(C(=O)C#CC(C)(C)N(C)C)CC3)C(=O)N3CCCC(N3)C(=O)OCC(C)(C)C2)C1 ?
inactive

Query: recorded result category for Nc1ccn(C2OC(CO)C(O)C2(F)F)c(=O)n1 (stereo not drawn) + CCn1c(-c2cccnc2C(C)OC)c2c3cc(ccc31)N1CCOC(CC(NC(=O)C(C(C)C)N(C)C(=O)C3(F)CCN(C(=O)C#CC(C)(C)N(C)C)CC3)C(=O)N3CCCC(N3)C(=O)OCC(C)(C)C2)C1 in this test
inactive

Where do these numbers come from? They come from PubChem BioAssay AID2060890.
